- SUBJECT_OF_TEST: T1, mouse DLL4 extracellular domain (mouse, UniProt Q9JI71 27-532)
- T1 construct: extracellular domain; also called muDLL4 ECD; murine DLL4
- ASSAY_REMARKS: competition ELISA vs Notch-1
RESULT_TYPE: IC50
Dear colleague, please send the value followed by its unit.

Exercise: Given h1A11.13 (antibody, V domains shown, humanized IgG; also called VH.2a/VL.1 1A11) VH: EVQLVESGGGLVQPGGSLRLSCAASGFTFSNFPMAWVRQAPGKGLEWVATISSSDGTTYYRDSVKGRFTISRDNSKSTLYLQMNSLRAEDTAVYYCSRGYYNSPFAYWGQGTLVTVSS VL: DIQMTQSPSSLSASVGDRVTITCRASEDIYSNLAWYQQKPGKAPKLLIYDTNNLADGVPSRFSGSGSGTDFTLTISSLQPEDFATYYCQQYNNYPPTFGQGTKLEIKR , state its recorded IC50.
Key: 1000 pM

Continuing:
Exercise: Given h1A11.4 (antibody, V domains shown, humanized IgG; also called VH.1/VL.2a 1A11) VH: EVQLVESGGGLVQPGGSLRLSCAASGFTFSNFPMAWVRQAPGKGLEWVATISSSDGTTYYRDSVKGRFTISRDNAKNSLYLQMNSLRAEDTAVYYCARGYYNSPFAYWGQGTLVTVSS VL: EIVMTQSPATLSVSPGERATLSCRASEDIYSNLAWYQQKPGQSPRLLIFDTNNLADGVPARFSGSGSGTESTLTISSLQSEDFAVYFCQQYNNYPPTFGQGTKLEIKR , state its recorded IC50.
Key: 900 pM

Exercise: Given h1A11.1 (antibody, V domains shown, humanized IgG; also called hu1A11.1; VH.1/VL.1 1A11) VH: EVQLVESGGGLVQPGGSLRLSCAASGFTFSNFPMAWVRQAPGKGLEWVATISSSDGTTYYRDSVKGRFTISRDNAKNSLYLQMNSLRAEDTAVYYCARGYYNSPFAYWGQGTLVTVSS VL: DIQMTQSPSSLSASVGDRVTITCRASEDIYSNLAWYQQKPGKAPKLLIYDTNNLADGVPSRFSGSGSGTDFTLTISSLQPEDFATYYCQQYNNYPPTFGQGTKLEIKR , state its recorded IC50.
Key: 1300 pM

Exercise: Given h1A11.11 (antibody, V domains shown, humanized IgG; also called VH.1b/VL.1b 1A11) VH: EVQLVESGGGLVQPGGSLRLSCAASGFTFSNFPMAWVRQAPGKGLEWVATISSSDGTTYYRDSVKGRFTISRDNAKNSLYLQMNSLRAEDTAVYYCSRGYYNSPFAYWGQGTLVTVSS VL: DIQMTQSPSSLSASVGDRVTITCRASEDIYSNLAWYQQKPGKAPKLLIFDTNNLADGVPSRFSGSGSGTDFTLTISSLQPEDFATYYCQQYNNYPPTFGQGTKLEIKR , state its recorded IC50.
Key: 800 pM

Exercise: Given h1A11.5 (antibody, V domains shown, humanized IgG; also called VH.1a/VL.1 1A11) VH: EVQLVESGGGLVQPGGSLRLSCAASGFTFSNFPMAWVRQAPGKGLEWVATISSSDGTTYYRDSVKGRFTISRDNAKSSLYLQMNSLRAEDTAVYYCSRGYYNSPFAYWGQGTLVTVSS VL: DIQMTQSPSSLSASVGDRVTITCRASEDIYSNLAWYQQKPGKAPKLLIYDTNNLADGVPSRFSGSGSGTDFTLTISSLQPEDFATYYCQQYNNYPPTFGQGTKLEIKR , state its recorded IC50.
Key: 800 pM

// data source = patent US20110217237A1
